system: blood-perfused sino-atrial preparation; experiment: sinus rate on blood-perfused sino-atrial preparation; design: species or system dog; conditions: Canis lupus familiaris, dose 3.0 ug; read-out: change of sinus rate (%)

{"Smiles input": "O=C1Nc2ccc(-n3ccnc3)cc2CO1", "activation at 0.003 mg [%]": 0.84}
{"Smiles input": "Cc1cn(-c2ccc3c(c2)COC(=O)N3)cn1", "activation at 0.003 mg [%]": 2.52}
{"Smiles input": "Cc1cn(-c2ccc3c(c2)CSC(=O)N3)cn1", "activation at 0.003 mg [%]": 2.3}
{"Smiles input": "Cc1cn(-c2cc(C)c3c(c2)CSC(=O)N3)cn1", "activation at 0.003 mg [%]": 3.3}
{"Smiles input": "Cc1nccn1-c1ccc2c(c1)COC(=O)N2", "activation at 0.003 mg [%]": 0}
{"Smiles input": "Cc1cn(-c2cc(C)c3c(c2)COC(=O)N3)cn1", "activation at 0.003 mg [%]": 5.8}
{"Smiles input": "CCc1nc(C)cn1-c1ccc2c(c1)COC(=O)N2", "activation at 0.003 mg [%]": 0}
{"Smiles input": "O=C1Nc2ccc(-n3cnc4ccccc43)cc2CO1", "activation at 0.003 mg [%]": 0}
{"Smiles input": "Cc1cn(-c2ccc3c(c2)COC(=O)N3)c(C)n1", "activation at 0.003 mg [%]": 0}

###

system: anesthetized cats; experiment: cardiotonic effect on anesthetized cats; format: in vivo, cat; details: Felis catus; 0.03 mg/Kg iv; read-out: mBP (%)

{"Smiles input": "S=C1Nc2ccc(-n3ccnc3)cc2CS1", "Tested system": "anesthetized cats", "change in vivo at 0.03 mg/kg": "0%"}
{"Smiles input": "Cc1cn(-c2ccc3c(c2)CSC(=O)N3)cn1", "Tested system": "anesthetized cats", "change in vivo at 0.03 mg/kg": "-12.5%"}
{"Smiles input": "Cc1cn(-c2ccc3c(c2)COC(=O)N3)cn1", "Tested system": "anesthetized cats", "change in vivo at 0.03 mg/kg": "-10.2%"}
{"Smiles input": "Cc1cn(-c2cc(C)c3c(c2)CSC(=S)N3)cn1", "Tested system": "anesthetized cats", "change in vivo at 0.03 mg/kg": "-5.3%"}
{"Smiles input": "O=C1Nc2ccc(-n3ccnc3)cc2CS1", "Tested system": "anesthetized cats", "change in vivo at 0.03 mg/kg": "-5.8%"}
{"Smiles input": "Cc1cn(-c2cc(C)c3c(c2)CSC(=O)N3)cn1", "Tested system": "anesthetized cats", "change in vivo at 0.03 mg/kg": "-4.5%"}
{"Smiles input": "Cc1cn(-c2ccc3c(c2)CSC(=S)N3)cn1", "Tested system": "anesthetized cats", "change in vivo at 0.03 mg/kg": "-3%"}
